B1: tRNA (parent)
chain: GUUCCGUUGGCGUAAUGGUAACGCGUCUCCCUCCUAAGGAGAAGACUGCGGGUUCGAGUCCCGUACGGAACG

- Variants of: B1
- assay-name: yeast fitness relative to wild type (ratio to wild type); higher = fitter; tRNA-Arg(CCU), competitive growth, 37 C, YPD
Fewer inactive variants are shown than the library holds.
measured-quantity: yeast fitness
Answer field: number only, no words.

The recorded yeast fitness for GUUCCGUUGGUGAAAUGGUAACGCAUCACCAUCCUAAGGAGACGACUGCGGGUUCGAGUGGUGUACGGAACG is 0.581

The recorded yeast fitness for GUUCCGUUGGCAUAAUGGUAACGCGUCUCCCUCCUAAGGAGAAGACUGCGGGUUCAAGUCCCGUACGGAACG is 0.975

The recorded yeast fitness for GUUCCGUUGGCGUAAUGAUAACGCGUCUCCCUCCUAAGGAGAAGACUGCGAGUUCGUGUCCCGUACGGAACG is 0.536

The recorded yeast fitness for GUUACAUUGGCGUAAUGGUAACGCGUCUCCCUCCUAAGGAGAAGACUGCGGGUUCGAGUCCCGUGCGGAACG is 0.56

The recorded yeast fitness for GUUCCGCUGGCGUAAUGGUAACGCGUCUCCCUCCUGAGGAGAUGACUGCGGGUUCGAGUCCGGUACGGAACG is 0.603

The recorded yeast fitness for GUUCCGUUGGCGUAAUGGUUACGCGUCUCGCUCCUAAGGAGAAGACUGCGGGUUCGAGUCCCGUACGGAACG is 0.61
